assay: physchem; type: physicochemical; conditions: 10% (100,000 ppm) dissolved in water at 40°C, left at 4°C; ERG precipitated 1 day later; read-out: concentration at which ERG could be contained in water

[
  {
    "structure-as-smiles": "C[N+](C)(C)[C@@H](Cc1c[nH]c(=S)[nH]1)C(=O)[O-]",
    "solubility at 24 h": "< 100 mg/mL"
  }
]
